- Test Summary: recombinant UMI read abundance after kanamycin selection (control-corrected) (log10(CPM+1)); higher = more efficient recombination; extreme values may be limits of the assay; sequences stand for … in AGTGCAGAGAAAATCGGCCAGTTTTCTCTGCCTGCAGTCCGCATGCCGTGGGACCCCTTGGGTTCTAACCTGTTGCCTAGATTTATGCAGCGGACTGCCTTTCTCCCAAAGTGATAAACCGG…AGGTTGGTTTCACT; site = the 11-nt donor;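 also: IS621 bridge recombinase in Escherichia coli cells against a fixed T5 target plasmid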
Measured recombinant UMI read abundance (log10) of individual entries
The answer should be a number; do not append a unit.

// known answers, use as guide
AGCTAGACATGGACCGGTTTTCCCGGTAATCCGTATTTGGG (site AGCTAGACTCC) :: 0.0244
GGGGCAACATGGACCGGTTTTCCCGGTAATCCGTATTTGCA (site GGGGCATCTTG) :: 0
GAGGTCACATGGACCGGTTTTCCCGGTAATCCGTATTTGAT (site GAGTTCACTAT) :: 0

Can you look up the measured recombinant UMI read abundance (log10) of CACTTGGCATGGACCGGTTTTCCCGGTAATCCGTATTTGGC (site CACTTGGCTGC) for me?
1.64

Can you look up the measured recombinant UMI read abundance (log10) of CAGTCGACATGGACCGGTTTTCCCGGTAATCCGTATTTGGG (site CAGTCGACTGC) for me?
0

Can you look up the measured recombinant UMI read abundance (log10) of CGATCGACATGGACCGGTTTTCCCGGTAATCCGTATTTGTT (site CCATCGACTAA) for me?
0.0246

Can you look up the measured recombinant UMI read abundance (log10) of TCATACTCATGGACCGGTTTTCCCGGTAATCCGTATTTGTA (site TCATACTCTTG) for me?
0

Can you look up the measured recombinant UMI read abundance (log10) of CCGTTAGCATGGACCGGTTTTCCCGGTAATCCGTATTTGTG (site CCGTTTGCTCA) for me?
0.00521

Can you look up the measured recombinant UMI read abundance (log10) of CCCTATTCATGGACCGGTTTTCCCGGTAATCCGTATTTGGA (site CCCTATTCTTC) for me?
0.0708

Can you look up the measured recombinant UMI read abundance (log10) of CTACTTTCATGGACCGGTTTTCCCGGTAATCCGTATTTGAC (site CTACTTTCTGT) for me?
1.94
